- assayed_target: T1, BCMA (UniProt Q02223 1-184, limits assumed)
- T1 sequence (looked up): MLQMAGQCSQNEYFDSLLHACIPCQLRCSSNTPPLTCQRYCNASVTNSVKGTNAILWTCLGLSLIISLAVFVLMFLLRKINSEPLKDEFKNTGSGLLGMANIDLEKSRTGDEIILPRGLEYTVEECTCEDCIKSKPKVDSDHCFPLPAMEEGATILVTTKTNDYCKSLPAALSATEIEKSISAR
- method_notes: cell-based or functional assay
Would you kindly list EC50(nM), inhibition of MM.1S cell proliferation for each of these binders?
Write it as a number; the unit nM goes unstated.

Find the recorded EC50(nM), inhibition of MM.1S cell proliferation belonging to anti-BCMA-005-Hu178-glucoseMMAE-NC-D4 (antibody, human IgG1, kappa, V domains shown, Linker-MMAE derivative 1 on cysteines of reduced interchain disulfides; HIC-DAR 3.73) VH: EVQLVESGGGLVKPGGSLRLSCAASGFTFSNFDMAWVRQAPGKGLEWVASIVTRGDDTYYRDSVRGRFTISRDNAKNTQYLQMNSLRAEDTAVYYCARHDYGGPSGWFGYWGQGTLVTVSS VL: DIQMTQSPSSLSASVGDRVTITCRASQGFSNNLNWYQQKPGKTPKPLIYYTSNLHSGVPSRFSGSGSGTDYSLTISSLQPEDFATYYCQQDASFPPTFGQGTKLEIKR and report it. 2.15

Repeat with anti-BCMA-005-Hu178-vcMMAE-D4 (antibody, human IgG1, kappa, V domains shown, vc-MMAE on cysteines of reduced interchain disulfides; HIC-DAR 3.78) VH: EVQLVESGGGLVKPGGSLRLSCAASGFTFSNFDMAWVRQAPGKGLEWVASIVTRGDDTYYRDSVRGRFTISRDNAKNTQYLQMNSLRAEDTAVYYCARHDYGGPSGWFGYWGQGTLVTVSS VL: DIQMTQSPSSLSASVGDRVTITCRASQGFSNNLNWYQQKPGKTPKPLIYYTSNLHSGVPSRFSGSGSGTDYSLTISSLQPEDFATYYCQQDASFPPTFGQGTKLEIKR 1.87

Also anti-BCMA-005-Hu178-OMeMMAE-D4 (antibody, human IgG1, kappa, V domains shown, Linker-MMAE derivative 2 on cysteines of reduced interchain disulfides; HIC-DAR 3.79) VH: EVQLVESGGGLVKPGGSLRLSCAASGFTFSNFDMAWVRQAPGKGLEWVASIVTRGDDTYYRDSVRGRFTISRDNAKNTQYLQMNSLRAEDTAVYYCARHDYGGPSGWFGYWGQGTLVTVSS VL: DIQMTQSPSSLSASVGDRVTITCRASQGFSNNLNWYQQKPGKTPKPLIYYTSNLHSGVPSRFSGSGSGTDYSLTISSLQPEDFATYYCQQDASFPPTFGQGTKLEIKR ? 2.42

And the next one, anti-BCMA-005-Hu178-vcMMAF-D4 (antibody, human IgG1, kappa, V domains shown, vc-MMAF on cysteines of reduced interchain disulfides; HIC-DAR 3.86) VH: EVQLVESGGGLVKPGGSLRLSCAASGFTFSNFDMAWVRQAPGKGLEWVASIVTRGDDTYYRDSVRGRFTISRDNAKNTQYLQMNSLRAEDTAVYYCARHDYGGPSGWFGYWGQGTLVTVSS VL: DIQMTQSPSSLSASVGDRVTITCRASQGFSNNLNWYQQKPGKTPKPLIYYTSNLHSGVPSRFSGSGSGTDYSLTISSLQPEDFATYYCQQDASFPPTFGQGTKLEIKR ? 1.12

Measured values drawn from patent EP4588489A1 for this set.
